Catalogue of t1/2 of α2-antagonism values
- Tested on: α2-adrenoceptor
- measurement notes: Duration of the α2-blocking action (antagonism of detomidine mydriasis after oral pretreatment)
- Format: in vivo
- test context: rat, equipotent doses, pretreatment 1, 2, 4, 7 or 16 hours, time for antagonist effect to fall by half
Please respond with the number in h and leave the unit unwritten.

Before answering, review these 2 worked examples.
>  <compound>
CCC1(c2c[nH]cn2)Cc2ccc(F)cc2C1 (stereo not shown)

>  <t1/2 of α2-antagonism [h]>
3

$$$$
>  <compound>
CCC1(c2c[nH]cn2)Cc2ccc(F)cc2C1=O (stereo not shown)

>  <t1/2 of α2-antagonism [h]>
6

$$$$

Please report the recorded t1/2 of α2-antagonism for Fc1ccc2c(c1)CC(c1c[nH]cn1)C2 (stereo not shown) .
7

Query CCC1(c2cnc[nH]2)Cc2ccccc2C1 [atipamezole, reference compound] next
2

---

- measurement notes: Acute toxicity (LD50) using mice
- test context: mouse, in vivo, po
experimental readout: LD50

# query: LD50 of entry Fc1ccc2c(c1)CC(c1c[nH]cn1)C2 (stereo not shown)
100 mg/kg

---

Consider the following compounds and their measured Kb readings.
- experimental system: α2-adrenoceptor (Mus musculus, UniProt Q01338)
- Construct: isolated, electrically stimulated mouse vas deferens preparation; from tissue; host or cells: isolated mouse vas deferens
- Sequence (Q01338 whole entry): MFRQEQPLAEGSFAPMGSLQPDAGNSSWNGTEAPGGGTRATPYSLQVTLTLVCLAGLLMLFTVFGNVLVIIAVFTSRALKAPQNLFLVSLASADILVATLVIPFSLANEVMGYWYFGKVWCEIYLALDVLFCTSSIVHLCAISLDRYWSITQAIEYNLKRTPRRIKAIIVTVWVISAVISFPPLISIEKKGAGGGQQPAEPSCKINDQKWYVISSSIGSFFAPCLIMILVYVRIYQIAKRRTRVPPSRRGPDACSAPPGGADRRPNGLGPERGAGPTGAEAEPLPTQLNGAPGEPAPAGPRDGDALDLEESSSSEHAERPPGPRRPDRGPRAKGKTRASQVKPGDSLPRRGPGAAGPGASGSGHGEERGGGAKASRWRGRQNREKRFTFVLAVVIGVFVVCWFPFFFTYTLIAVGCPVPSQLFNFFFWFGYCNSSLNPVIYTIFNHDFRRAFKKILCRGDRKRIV
- measurement notes: α2-Antagonism in vitro, isolated electrically stimulated mouse vas deferens (vs detomidine)
- test context: antagonist given prior to detomidine; mouse vas deferens; read-out: α2-Antagonism (pA2 vs detomidine) mouse vas deferens (converted)
Please state the figure in nM; there is no need to write the unit.

Past entries and their recorded results:
>  <compound>
CCC1(c2c[nH]cn2)Cc2ccc(Cl)cc2C1=O (stereo not drawn) [Compound 5]

>  <Kb / nM>
251

$$$$
>  <compound>
CCC1(c2c[nH]cn2)Cc2ccc(F)cc2C1=O (stereo not drawn) [Compound 4]

>  <Kb / nM>
1260

$$$$
>  <compound>
CCC1(c2c[nH]cn2)Cc2ccc(O)cc2C1 (stereo not drawn) [Compound 8, 2-Ethyl-2-(1H-imidazol-4-yl)-5-indanol]

>  <Kb / nM>
63.1

$$$$
>  <compound>
CCC1(c2c[nH]cn2)Cc2ccc(F)cc2C1 (stereo not drawn) [Compound 1]

>  <Kb / nM>
6.31

$$$$
>  <compound>
CC1(c2c[nH]cn2)Cc2ccc(F)cc2C1 (stereo not drawn) [Compound 2]

>  <Kb / nM>
50.1

$$$$

Item under review: CCC1(c2c[nH]cn2)Cc2cc(F)c(F)cc2C1 [Compound 3] . Reported Kb?
63.1
